Please respond with reported potency estimated from few doses for every item in the list.
# Tested on: MAPK11
# Set-up: species or system human, MV4-11 + K-562 + COLO205 + SK-N-BE2 + OVCAR-8
# CONDITIONS USED: read-out: apparent Kd; compound concentrations: 100 nM and 1000 nM (sheet 'Samples'), CATDS: 1; n = 1
Hey, just the number and the unit after it is fine.

## Input API: value(readout= potency estimated from few doses, system= MAPK11, query= CN1CCN(CCc2cccc(C(=O)c3cnn(-c4ccc(F)cc4)c3N)c2)CC1.Cl )
## Output 1330 nM

## Input Please provide the recorded potency estimated from few doses for Nc1c(C(=O)c2cccc(C#CCO)c2)cnn1-c1ccc(F)cc1 , tested on MAPK11.
## Output 591 nM

## Input For MAPK11, provide potency estimated from few doses of Nc1c(C(=O)c2cccc(OCCN3CCOCC3)c2)cnn1-c1ccc(F)cc1 please.
## Output 701 nM

## Input Lookup: potency estimated from few doses / MAPK11 / Nc1c(C(=O)c2cccc(OC[C@H](O)CO)c2)cnn1-c1ccc(F)cc1
## Output 697 nM

* * *

# System: MELK
# Set-up: species or system human, MV4-11 + K-562 + COLO205 + SK-N-BE2 + OVCAR-8
# CONDITIONS USED: read-out: apparent Kd; compound concentrations:100 nM and 1000 nM (sheet 'Samples'); n = 1
potency estimated from few doses strictly less than 800 nM = Condition met. Otherwise Condition not met.

## Input hey, is potency estimated from few doses for O=C(O)C(F)(F)F.O=c1[nH]ccc2nc(N[C@@H]3CCNC3)nc(Nc3cc(Cl)cc(Cl)c3)c12 [GSK2188764A] lower than 800 nM or not?
## Output Condition met

## Input Quick check: does CNC(=O)c1ccccc1Nc1nc(Nc2ccc(N3CCOCC3)cc2)ncc1Cl.Cl [GSK1576028A] have potency estimated from few doses under 800 nM?
## Output Condition not met

## Input Given CCn1c(-c2nonc2N)nc2cncc(CNC3CCNCC3)c21 [SB-747651A] , is recorded potency estimated from few doses strictly lower than 800 nM?
## Output Condition met

## Input Say whether its potency estimated from few doses is strictly beneath 800 nM. Entry: CNc1nc(-c2ccc3c(N)n[nH]c3c2)cc(N2C[C@@H](C(=O)NC3CCCCC3)CC[C@H]2C)n1 [GSK2334470]
## Output Condition not met

## Input Record O=C1NC(=O)C(N2CCc3ccccc32)=C1c1ccccc1Cl [SB-373598] : is its potency estimated from few doses strictly below 800 nM?
## Output Condition not met

* * *

# Tested on: CAMK4
# Parameters: species or system human, MV4-11 + K-562 + COLO205 + SK-N-BE2 + OVCAR-8
# CONDITIONS USED: read-out: apparent Kd; compound concentrations:100 nM and 1000 nM (sheet 'Samples'); n = 1
OBSERVABLE: potency estimated from few doses (nM)
# number only, unit nM dropped from output

## Input Can you share its potency estimated from few doses? I mean this compound: Cl.Cn1cc(C2=C(c3cn(CCCN)c4ccccc34)C(=O)NC2=O)c2ccccc21
## Output 1430

## Input # input compound: NCC1CCC(CNc2nc(NCc3ccccc3OC(F)(F)F)ncc2[N+](=O)[O-])CC1 (centres unmarked) [BIRZ0518XX] ; wanted: its potency estimated from few doses
## Output 1110

## Input For the compound FC(F)(F)c1cc(Nc2nccc(-c3c(-c4ccc(Cl)cc4)nn4ncccc34)n2)ccc1Cl [GW829351X] , what potency estimated from few doses is on record?
## Output 2170

## Input Param item = O=C(Nc1n[nH]c2nc(-c3nccs3)c(Br)cc12)C1CC1 ; retrieve measured potency estimated from few doses.
## Output 1800

## Input Name the reported potency estimated from few doses value associated with the compound Nc1nc(-c2ccc3c(N)n[nH]c3c2)cc(N2CCCC(NC(=O)c3ccccc3)C2)n1 (centres unmarked) [GSK2286775B]
## Output 1090

* * *

# System: PRKCB;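 also: competition pulldown with Kinobeads ε in cell lysates, inhibitor preincubated 45 min at 4 °C, bound kinases quantified by LC–MS/MS against DMSO control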
# Set-up: species or system human, MV4-11 + K-562 + COLO205 + SK-N-BE2 + OVCAR-8
# CONDITIONS USED: read-out: apparent Kd; compound concentrations:0.3nM, 1nM, 3nM, 10nM, 30nM, 100nM, 300nM, 1000nM,R2:0.978843793099339,slope:1.0046603573044399,EC50 Standard Error, by the legend:Standard error of the EC50 estimation as provided by the drc package.
OBSERVABLE: Kd
Please provide the amount together with its unit, number first.

## Input What does the record list as Kd for CCn1c(-c2nonc2N)nc2c(C#CC(C)(C)O)nc(OCCN)cc21.CCn1c(-c2nonc2N)nc2c(C#CC(C)(C)O)nc(OCCN)cc21.Cl.Cl [GSK902056A] ?
## Output 401 nM

* * *

# System: CDK4
# Parameters: species or system human, MV4-11 + K-562 + COLO205 + SK-N-BE2 + OVCAR-8
# CONDITIONS USED: read-out: apparent Kd; compound concentrations:100 nM and 1000 nM (sheet 'Samples'); n = 1
OBSERVABLE: potency estimated from few doses (nM)
Reply numerically in nM, unit not repeated.

## Input Item under review: Cl.Cn1cc(C2=C(c3cn(CCCN)c4ccccc34)C(=O)NC2=O)c2ccccc21 . Reported potency estimated from few doses?
## Output 1650

## Input Reported potency estimated from few doses, molecule COc1cc(F)c(F)c(F)c1C(=O)c1cnc(NC2CCN(S(C)(=O)=O)CC2)nc1N : ____
## Output 1310

## Input Could you share which potency estimated from few doses value was measured for CN1C(=O)[C@@H](NC(=O)c2cc(Cc3ccccc3)on2)COc2ccccc21 ?
## Output 1980

## Input For the molecule shown here, O=C1NC(=O)C(c2ccc(Cl)cc2)=C1Nc1ccc(O)cc1 , give the reported potency estimated from few doses.
## Output 1970

* * *

So I've got a bunch of compounds here, and I need their potency estimated from few doses values.
# Test system: ABL1
# Design: species or system human, MV4-11 + K-562 + COLO205 + SK-N-BE2 + OVCAR-8
# CONDITIONS USED: read-out: apparent Kd; compound concentrations:100 nM and 1000 nM (sheet 'Samples'); n = 1
Write the value in nM as a bare number.

## Input So what potency estimated from few doses did CN1C[C@@H]2Cn3c(c(C4=C(c5cn(C)c6ccccc56)C(=O)NC4=O)c4ccccc43)C[C@H]2C1.Cl [RO0320234-001] get with ABL1?
## Output 93.7

## Input Recorded potency estimated from few doses for CC(C)N1CCC(n2cnc(-c3ccc(F)cc3)c2-c2ccnc(N)n2)CC1 [SB-223132] with ABL1, please?
## Output 1110

## Input Notebook: pull reported potency estimated from few doses for ABL1, entry Cc1ccc2c(-c3ccncc3)c(-c3ccc(F)cc3)nn2c1.Cl [GW461484A]
## Output 1220

## Input Query potency estimated from few doses on ABL1 for COc1cccc(-c2c[nH]c3c(N/N=C/c4ccncc4)ncnc23)c1 [GW814408X]
## Output 1980

## Input Could you share what potency estimated from few doses was measured for O=C1NC(=O)C(N2CCc3ccccc32)=C1c1ccccc1Cl [SB-373598] , tested on ABL1?
## Output 172

## Input State its potency estimated from few doses on ABL1: Cn1cc(-c2cnc(N)c3c(-c4ccc5c(c4)CCN5C(=O)Cc4ccccc4)csc23)cn1 [GSK2593074A]
## Output 563

* * *

Provide the recorded potency estimated from few doses for the entries that follow.
# Test system: CDK4
# Design: species or system human, MV4-11 + K-562 + COLO205 + SK-N-BE2 + OVCAR-8
# CONDITIONS USED: read-out: apparent Kd; compound concentrations:100 nM and 1000 nM (sheet 'Samples'); n = 1
Report the figure in nM without appending any unit label.

## Input Please report the recorded potency estimated from few doses for COc1ccc(F)cc1C(=O)c1cnc(NC2CCN(S(C)(=O)=O)CC2)nc1N .
## Output 1200

## Input For the compound shown here, N#Cc1cccc(Nc2nccc(-c3cnn4ncccc34)n2)c1 [GW778894X] , give the reported potency estimated from few doses.
## Output 1830

## Input Which measured potency estimated from few doses value corresponds to O=C(Nc1n[nH]c2nc(-c3nccs3)c(Br)cc12)C1CCCC1 ?
## Output 1110

* * *

# System: SRC
# Set-up: species or system human, MV4-11 + K-562 + COLO205 + SK-N-BE2 + OVCAR-8
# CONDITIONS USED: read-out: apparent Kd; compound concentrations:100 nM and 1000 nM (sheet 'Samples'); n = 1
Give measured potency estimated from few doses for each item. Keep answers brief.
Give the value in nM but do not write nM after it.

## Input Can you share its potency estimated from few doses? I mean this molecule: Cc1ccc2c(-c3ccncc3)c(-c3ccc(F)cc3)nn2c1.Cl [GW461484A]
## Output 593

## Input // potency estimated from few doses lookup, key: O=C1NC(=O)C(N2CCc3ccccc32)=C1c1ccccc1Cl [SB-373598]
## Output 134

## Input Which potency estimated from few doses is listed for CC(=O)N[C@@H](Cc1ccc(OP(=O)(O)O)cc1)C(=O)N[C@H]1CCC(=O)N2CCC[C@@H](C(=O)NCc3ccc(Cl)cc3)N2C1=O [RO0325308-000] ?
## Output 1040

## Input Name the recorded potency estimated from few doses for CC(C)N1CCC(n2cnc(-c3ccc(F)cc3)c2-c2ccnc(N)n2)CC1 [SB-223132] .
## Output 964

## Input What measured potency estimated from few doses goes with NCCNS(=O)(=O)c1ccc(-c2ccnc3[nH]ccc23)cc1 [GSK977617A] ?
## Output 589

## Input Which potency estimated from few doses value is on record for Cl.Cl.NCC(C(=O)Nc1cc(Br)c(-c2ccnc3[nH]ccc23)s1)c1ccccc1.NCC(C(=O)Nc1cc(Br)c(-c2ccnc3[nH]ccc23)s1)c1ccccc1 (stereo not drawn) [GSK1269851A] ?
## Output 523

Data origin: paper PMC11062922
